Below: a set of entries, each annotated with reported IC50.
- Tested on: production of prostaglandin E2 by human fibroblasts
- testName: Inhibition of Production of Prostaglandin E2 in Human Fibroblasts (IL-1 stimulation)
- Type: cell-based
- details: Fibroblast; human fibroblasts under stimulation with IL-1
- Description: Test Example 2 Inhibition of Production of Prostaglandin E2 in Human Fibroblasts. […]
propertyMeasured: IC50 (nM)

querysmiles=O=C1NC(=S)S/C1=C\c1ccc(C(=O)NC[C@@H]2C[C@@H](OCc3ccccc3-c3ccccc3)CN2C(=O)c2ccccc2C(=O)c2ccc(Cl)cc2)cc1 observedresult=1400
querysmiles=O=C1NC(=O)/C(=C/c2ccc(C(=O)NC[C@@H]3C[C@@H](OCc4ccccc4-c4cccc(C(F)(F)F)c4)CN3C(=O)c3ccccc3C(=O)c3ccc(F)cc3)cc2)S1 observedresult=550
querysmiles=COc1cccc(-c2cccc3ccccc23)c1O[C@@H]1C[C@@H](CNC(=O)c2ccc(/C=C3\SC(=O)NC3=O)cc2)N(C(=O)c2ccccc2C(=O)c2ccc(F)cc2)C1 observedresult=2200
querysmiles=O=C1NC(=O)/C(=C/c2ccc(CCC[C@@H]3C[C@@H](OCc4ccccc4-c4ccccc4)CN3C(=O)c3ccccc3C(=O)c3ccc(F)cc3)cc2)S1 observedresult=6500
querysmiles=O=C1NC(=O)C(=C/C=C/c2ccc(C(=O)NC[C@@H]3C[C@@H](OCc4ccccc4-c4ccccc4)CN3C(=O)c3ccccc3C(=O)c3ccc(F)cc3)cc2)S1 observedresult=120
querysmiles=O=C1NC(=O)/C(=C/c2ccc(C(=O)NC[C@@H]3C[C@@H](OCc4ccccc4-c4cccc([N+](=O)[O-])c4)CN3C(=O)c3ccccc3C(=O)c3ccc(F)cc3)cc2)S1 observedresult=380
querysmiles=O=C1NC(=O)/C(=C/c2ccc(C(=O)NC[C@@H]3C[C@@H](Oc4ccc5cc(-c6ccccc6)ccc5c4)CN3C(=O)c3ccccc3C(=O)c3ccc(F)cc3)cc2)S1 observedresult=310
querysmiles=O=C1NC(=S)S/C1=C\c1ccc(C(=O)NC[C@@H]2C[C@@H](OCc3ccccc3-c3ccccc3)CN2C(=O)c2ccccc2C(=O)c2ccc(F)cc2)s1 observedresult=940
querysmiles=COc1cccc(-c2ccccc2O[C@@H]2C[C@@H](CNC(=O)c3ccc(/C=C4\SC(=O)NC4=O)cc3)N(C(=O)c3ccccc3C(=O)c3ccc(F)cc3)C2)c1 observedresult=440
querysmiles=O=C1NC(=O)/C(=C/c2ccc(C(=O)NC[C@@H]3C[C@@H](CCc4ccccc4-c4ccccc4)CN3C(=O)c3ccccc3C(=O)c3ccc(F)cc3)cc2)S1 observedresult=1100
querysmiles=CN(c1ccccc1)c1cccc(O[C@@H]2C[C@@H](CNC(=O)c3ccc(/C=C4\SC(=O)NC4=O)cc3)N(C(=O)c3ccccc3C(=O)c3ccc(F)cc3)C2)c1 observedresult=940
querysmiles=O=C1NC(=O)/C(=C/c2ccc(C(=O)NC[C@@H]3C[C@H](OCc4ccccc4-c4ccccc4)CN3C(=O)c3ccccc3C(=O)c3ccc(F)cc3)cc2)S1 observedresult=490
querysmiles=O=C1NC(=O)/C(=C/c2ccc(C(=O)NC[C@@H]3C[C@@H](OCc4ccccc4-c4ccccc4)CN3C(=O)c3ccccc3C(=O)c3ccccc3)cc2)S1 observedresult=170
querysmiles=CN(Cc1ccccc1-c1ccccc1)[C@@H]1C[C@@H](CNC(=O)c2ccc(/C=C3\SC(=S)NC3=O)cc2)N(C(=O)c2ccccc2C(=O)c2ccc(F)cc2)C1 observedresult=1500
querysmiles=COc1ccccc1-c1ccccc1CO[C@@H]1C[C@@H](CNC(=O)c2ccc(/C=C3\SC(=O)NC3=O)cc2)N(C(=O)c2ccccc2C(=O)c2ccc(F)cc2)C1 observedresult=1200
querysmiles=CC(C)CN(Cc1ccccc1-c1ccccc1)[C@@H]1C[C@@H](CNC(=O)c2ccc(/C=C3\SC(=O)NC3=O)cc2)N(C(=O)c2ccccc2C(=O)c2ccc(F)cc2)C1 observedresult=270
querysmiles=O=C1NC(=O)/C(=C/c2ccc(C(=O)NC[C@@H]3C[C@@H](Oc4cccc(-c5ccc6ccccc6c5)c4)CN3C(=O)c3ccccc3C(=O)c3ccc(F)cc3)cc2)S1 observedresult=250
querysmiles=O=C1NC(=O)/C(=C/c2ccc(C(=O)NC[C@@H]3C[C@@H](Oc4ccccc4-c4ccc5c(c4)OCO5)CN3C(=O)c3ccccc3C(=O)c3ccc(F)cc3)cc2)S1 observedresult=350
